- System: human Nanog promoter
- test_summary: Nanog-luc luciferase reporter assay (stably transfected CV1 cells)
- Type: cell-based
- setup_conditions: Chlorocebus aethiops, CV-1; compound at 1 μM, Nanog-luc cells, triplicates
- Description: Oct4, Sox2, and Nanog form a positive regulatory loop to regulate the expression of each other, and Nanog is considered a downstream target gene of Oct4 and Sox2 (37). Therefore, activation of Nanog promoter was used as a validation assay for the identified compounds. […] AzaC, 25 μg/ml Vc, 10 nM Am580, 5 μM tranylcypromine, and 0.5 mM VPA. […] Luciferase activity was measured 48 hr after compound treatment using the Glo Luciferase Assay System (Promega).
property: fold induction at 1 µM
Give bare numbers.

Solved entries:
>  <compound>
O=C(CCCCC1SCC2NC(=O)NC21)NCc1ccc(C(=O)Nc2ccc3[nH]ncc3c2)cc1 (stereo not shown)

>  <experimental_result>
0.97

$$$$
>  <compound>
COc1cc(C(=O)Nc2ccc3[nH]nnc3c2)cc(OC)c1OC

>  <experimental_result>
1.08

$$$$
>  <compound>
Nc1ccc(C(=O)Nc2ccc3[nH]ncc3c2)cc1

>  <experimental_result>
1.55

$$$$

Quick one: give me fold induction at 1 µM for each item below, same order please.
1. O=C(Nc1ccc2[nH]ncc2c1)c1c(F)c(F)c(F)c(F)c1F
2. NCc1ccc(C(=O)Nc2ccc3[nH]ncc3c2)cc1

[1.02, 1.06]

Your task in this section: give fold induction at 1 µM for each listed record.
1. O=C(Nc1cc2cc[nH]c2cn1)c1ccccc1 [OAC1, N-(1H-6-azaindol-5-yl)benzamide]
2. CC(C)(C)OC(=O)NCc1ccc(C(=O)Nc2ccc3[nH]ncc3c2)cc1
3. CC(C)(C)OC(=O)Nc1ccc(C(=O)Nc2ccc3[nH]ncc3c2)cc1
4. O=C(Nc1ccc2[nH]ccc2c1)c1ccccc1 [OAC2, N-(1H-indol-5-yl)benzamide]
5. COc1cc(OC)c(C(=O)Nc2ccc3[nH]ncc3c2)cc1OC
6. O=C(Nc1ccc2[nH]ncc2c1)c1cc(F)c(F)cc1Cl

1. 4.5
2. 0.96
3. 1.09
4. 3.9
5. 1.1
6. 1.24

Batch lookup, fold induction at 1 µM per entry.
1. O=C(Nc1ccc2[nH]ccc2c1)c1ccc(F)cc1 [OAC3, 4-fluoro-N-(1H-indol-5-yl)benzamide]
2. COc1ccc(Cl)cc1C(=O)Nc1ccc2[nH]ncc2c1

1: 3.5; 2: 1.38
